# Tested on: DeltatarO mutant
# protocol.notes: S. aureus survival, RN4220 and DeltatarO strains – OD600, teichoic acid synthesis inhibitors, primary screen (AID 463173)
# condition.summary: S. aureus RN4220 wild type/DeltatarO growth, OD600, 18 h, screened at 18.75 µg/mL (by protocol)
Out of some 52,000 compounds screened, about 4,300 (8.3%) were called active. No stated cut-off is given here; in the data, active means survival mostly below about 52% (no sharp cut-off); inactive means mostly above about 56%. The sample as a whole holds a higher share of actives than the screen did.
Hello, when you answer, please use one of the following outcomes: active, inactive

In: GET /call?item= CN(C)CCNC(=O)c1ccc(-n2c(-c3ccccc3)cc3c2CCCCC3)cc1 returns the recorded outcome of this test.
Out: inactive

In: GET /call?item= O=C(Nc1ccc(Cl)cc1)c1ccc2oc(=O)n(Cc3ccccc3)c2c1 returns the recorded outcome of this test.
Out: inactive

In: GET /call?item= OCCNc1nc(-c2cccnc2)nc2ccccc12 returns the recorded outcome of this test.
Out: inactive

In: GET /call?item= CCCCOc1ccc(C2c3c(oc4ccccc4c3=O)C(=O)N2c2nc(C)c(C(=O)OCC)s2)cc1OC (stereo not drawn) returns the recorded outcome of this test.
Out: inactive

In: GET /call?item= O=C(Cn1c(CC(=O)N2CCCC2)nc2ccccc21)NCc1ccccc1 returns the recorded outcome of this test.
Out: active

In: GET /call?item= COc1ccccc1N1CCN(C(=O)CSc2nc3ccccc3nc2Cc2ccc(F)cc2)CC1 returns the recorded outcome of this test.
Out: inactive

In: GET /call?item= O=C(Nc1cccc(F)c1)c1ccc2oc(=O)n(Cc3ccccc3)c2c1 returns the recorded outcome of this test.
Out: inactive

In: GET /call?item= O=C(NCc1ccc(Cl)cc1)c1ccc2oc(=O)n(Cc3ccccc3)c2c1 returns the recorded outcome of this test.
Out: inactive

In: GET /call?item= CCOc1ccc(-n2c(SCC(=O)Nc3cccc(Cl)c3)nc3c(oc4ccccc43)c2=O)cc1 returns the recorded outcome of this test.
Out: inactive

In: GET /call?item= Cc1ccc(CNC(=O)c2ccc3oc(=O)n(Cc4ccccc4)c3c2)cc1 returns the recorded outcome of this test.
Out: inactive

In: GET /call?item= CN(CC(=O)O)Cc1nc2ccccc2[nH]1 returns the recorded outcome of this test.
Out: inactive

In: GET /call?item= COc1ccc(CCNC(=O)c2ccc3c(c2)OCO3)cc1 returns the recorded outcome of this test.
Out: inactive

In: GET /call?item= CC(=O)c1cccc(NC(=O)c2nc(-c3ccccc3)n(-c3cccc(C)c3)n2)c1 returns the recorded outcome of this test.
Out: inactive

In: GET /call?item= CN(C)CCNC(=O)c1ccc(-n2c(-c3ccccc3)cc3c2CCCC3)cc1 returns the recorded outcome of this test.
Out: active

In: GET /call?item= Cc1cccc(CNC(=O)c2ccc3oc(=O)n(Cc4ccccc4)c3c2)c1 returns the recorded outcome of this test.
Out: inactive

In: GET /call?item= COc1cc(Nc2nc(-c3ccc(OC)c(OC)c3)nc3ccccc23)cc(OC)c1 returns the recorded outcome of this test.
Out: active

In: GET /call?item= CCc1ccc(NC(=O)c2ccc3oc(=O)n(Cc4ccccc4)c3c2)cc1 returns the recorded outcome of this test.
Out: active

In: GET /call?item= CCNC(=O)c1ccc(-n2c(-c3ccccc3)cc3c2CCCCC3)cc1 returns the recorded outcome of this test.
Out: active

In: GET /call?item= COc1cccc(CNC(=O)c2ccc3oc(=O)n(Cc4ccccc4)c3c2)c1 returns the recorded outcome of this test.
Out: active

In: GET /call?item= CCOc1ccc(Sc2cc(C(=O)NCCc3ccccc3)c3ccccc3n2)cc1 returns the recorded outcome of this test.
Out: inactive

In: GET /call?item= CCOCCCNC(=O)C(c1ccc(OC)cc1)N(Cc1ccc2c(c1)OCO2)C(=O)c1ccccc1O (stereo not drawn) returns the recorded outcome of this test.
Out: inactive

In: GET /call?item= COCCCNC(=O)c1ccc(-n2c(-c3ccccc3)cc3c2CCCC3)cc1 returns the recorded outcome of this test.
Out: inactive

In: GET /call?item= CC(=O)c1cccc(Nc2nc(-c3cccc(C)c3)nc3ccccc23)c1 returns the recorded outcome of this test.
Out: active

In: GET /call?item= COc1ccc(Nc2nc(-c3ccc(C)cc3)nc3ccccc23)c(OC)c1 returns the recorded outcome of this test.
Out: inactive

In: GET /call?item= CC(C)NC(=O)c1ccc(-n2c(-c3ccccc3)cc3c2CCCCC3)cc1 returns the recorded outcome of this test.
Out: inactive

In: GET /call?item= COc1ccc(CNCCC(c2ccccc2)c2ccc3c(c2)OCO3)cc1 (stereo not drawn) returns the recorded outcome of this test.
Out: active

In: GET /call?item= CCC(=O)N(CCC(c1ccccc1)c1ccc2c(c1)OCO2)Cc1ccc(OC(C)C)cc1 (stereo not drawn) returns the recorded outcome of this test.
Out: active

In: GET /call?item= COc1ccc(CNCCC(c2ccc3c(c2)OCO3)c2ccccc2OC)cc1 (stereo not drawn) returns the recorded outcome of this test.
Out: active

In: GET /call?item= CC1=C(C(=O)Nc2ccc(C)cc2C)C(c2sccc2C)n2ncnc2N1 (stereo not drawn) returns the recorded outcome of this test.
Out: inactive

In: GET /call?item= N#Cc1cc(C#N)c(SCC(N)=O)nc1N returns the recorded outcome of this test.
Out: inactive

In: GET /call?item= COCCNC(=O)c1ccc(-n2c(-c3ccccc3)cc3c2CCCCC3)cc1 returns the recorded outcome of this test.
Out: inactive

In: GET /call?item= O=C(NCc1ccccc1)c1ccc2oc(=O)n(Cc3ccccc3)c2c1 returns the recorded outcome of this test.
Out: inactive

In: GET /call?item= Cc1ccccc1OCC(O)Cn1c(=N)n(CCN2CCCCC2)c2ccccc21 (stereo not drawn) returns the recorded outcome of this test.
Out: inactive

====

# Tested on: DeltatarO mutant
# protocol.notes: S. aureus survival, RN4220 and DeltatarO strains – OD600, teichoic acid synthesis inhibitors, primary screen (AID 463173)
# condition.summary: S. aureus RN4220 wild type/DeltatarO growth, OD600, 18 h, screened at 18.75 µg/mL (by protocol)
The whole screen tested about 52,000 compounds, of which about 4,300 (8.3%) were called active. No stated cut-off is given here; in the data, active means survival mostly below about 52% (no sharp cut-off); inactive means mostly above about 56%. The sample holds actives, similar compounds and a random draw of the others, so the mix is not that of the screen.
Hello, when you answer, please use one of the following outcomes: active, inactive

In: GET /call?item= CCN(CC)c1ccc(-n2nc3cc(C)c(NC(=O)c4ccccc4C)cc3n2)c(C)c1 returns the recorded outcome of this test.
Out: inactive

In: GET /call?item= COc1c(C)cc(Br)cc1C(=O)Nc1ccc(-c2nc3ncccc3o2)cc1 returns the recorded outcome of this test.
Out: inactive

In: GET /call?item= CN(C)CCN(Cc1ccco1)C(=O)c1cc2c(s1)-c1ccccc1OC2 returns the recorded outcome of this test.
Out: inactive

In: GET /call?item= COC(=O)Cn1c(C(O)c2ccccc2)nc2ccccc21 (stereo unspecified) returns the recorded outcome of this test.
Out: inactive

In: GET /call?item= CC(C)CC(=O)Nc1nnc2n1CCS2 returns the recorded outcome of this test.
Out: inactive

In: GET /call?item= O=C(OC(C(=O)NC1CCCC1)c1cccnc1)C1=Cc2ccccc2OC1 (stereo unspecified) returns the recorded outcome of this test.
Out: inactive

In: GET /call?item= Cc1ccc2c(c1)nc(SCC(O)c1ccc(Br)cc1)n2C (stereo unspecified) returns the recorded outcome of this test.
Out: inactive

In: GET /call?item= O=C(COc1ccccc1)N(Cc1cccnc1)c1nc2c(F)cccc2s1 returns the recorded outcome of this test.
Out: inactive

In: GET /call?item= Cc1ccc2c(c1)C(=O)OC(C(=O)Nc1ccc(C(=O)O)cc1)C2 (stereo unspecified) returns the recorded outcome of this test.
Out: inactive

In: GET /call?item= Cc1ccc(-c2nc3ncccc3o2)cc1NC(=O)c1ccccc1Br returns the recorded outcome of this test.
Out: inactive

In: GET /call?item= COc1ccc(OCC(=O)N2CCN(C(=O)c3cccc(OC)c3)CC2)cc1 returns the recorded outcome of this test.
Out: inactive

In: GET /call?item= Cc1ccn2c(Nc3ccc4c(c3)OCO4)c(-c3ccc(N(C)C)cc3)nc2c1 returns the recorded outcome of this test.
Out: inactive

In: GET /call?item= CCOc1cc(C(=O)Nc2ccc(-c3nc4ncccc4o3)cc2C)cc(OCC)c1OCC returns the recorded outcome of this test.
Out: active

In: GET /call?item= COc1ccc(C(=O)Nc2ccc(-c3nc4ncccc4o3)cc2)cc1 returns the recorded outcome of this test.
Out: inactive

In: GET /call?item= Cc1cc(-c2nc3ncccc3o2)ccc1NC(=O)c1ccc(Br)cc1 returns the recorded outcome of this test.
Out: inactive

In: GET /call?item= CCN(CC)c1ccc(-n2nc3cc(C)c(NC(C)=O)cc3n2)cc1 returns the recorded outcome of this test.
Out: inactive

In: GET /call?item= COc1ccccc1NC(=O)CSc1nc(-c2ccc(C)cc2)nc2c1Cc1c(CO)cnc(C)c1O2 returns the recorded outcome of this test.
Out: active

In: GET /call?item= Cc1nc(-c2ccc(S(=O)(=O)N3CCN(c4cccc(Cl)c4)CC3)cc2)co1 returns the recorded outcome of this test.
Out: inactive

In: GET /call?item= Cc1cc2nn(-c3ccccc3)nc2cc1NC(=O)c1cccc2c(Cl)cccc12 returns the recorded outcome of this test.
Out: active

In: GET /call?item= Cc1ccc(S(=O)(=O)c2cc3cc(C(=O)Nc4ccc(C)cc4C)ccc3oc2=O)cc1 returns the recorded outcome of this test.
Out: inactive

In: GET /call?item= CCOC(=O)c1ccc(Nc2c(-c3ccc(N(C)C)cc3)nc3nc[nH]n23)cc1 returns the recorded outcome of this test.
Out: inactive

In: GET /call?item= CCCOc1ccc(C(=O)N(Cc2cccs2)c2ccc(C)cc2)cc1 returns the recorded outcome of this test.
Out: inactive

In: GET /call?item= COCCCN(Cc1ccco1)C(=O)c1cc2c(s1)-c1ccccc1OC2 returns the recorded outcome of this test.
Out: active

In: GET /call?item= CC(C)CCN(Cc1ccco1)C(=O)c1cc2c(s1)-c1ccccc1OC2 returns the recorded outcome of this test.
Out: active

In: GET /call?item= Cc1cccc(N2CCN(C(=O)c3ccc(NC(=O)c4nsc5ccccc45)cc3)CC2)c1C returns the recorded outcome of this test.
Out: inactive

In: GET /call?item= COc1ccc(C)cc1N(CC(=O)N1CCC(C)CC1)S(=O)(=O)c1ccc(C)cc1 returns the recorded outcome of this test.
Out: active
